Test system: DeltatarO mutant
Assay: S. aureus survival, RN4220 and DeltatarO strains – OD600, teichoic acid synthesis inhibitors, primary screen (AID 463173)
Conditions: S. aureus RN4220 wild type/DeltatarO growth, OD600, 18 h, active compounds read low, screened at 18.75 µg/mL (by protocol)
In all, about 52,000 compounds went through this assay and about 4,300 (8.3%) were called active. The sample holds actives, similar compounds and a random draw of the others, so the mix is not that of the screen.
# survival values compiled below
Quick reminder: number only, in %, skip the unit.

| compound | survival [%] |
| --- | --- |
| CCCn1c2ccccc2c2cnn(CC(=O)N3CCN(c4ccccc4F)CC3)c(=O)c21 | -4 |
| O=CN(Cc1ccco1)C1(C(=O)NC2CCCCC2)CCCCC1 | 76 |
| CC1CCCCN1C(=O)Cn1ncc2c3ccccc3n(Cc3ccccc3F)c2c1=O (stereo not drawn) | 32 |

Under DeltatarO mutant, report survival for COc1ccc(CCNC(=O)c2cc3c(=O)n4cccc(C)c4nc3n2C)cc1 67

State survival on DeltatarO mutant. Entry: CCS(=O)(=O)c1ccccc1C(=O)N1CCN(c2nc3ccccc3s2)CC1 55

Please respond with reported survival (system DeltatarO mutant) for CNC(=O)C1CCC(Cn2c(=O)c3sccc3n(CC(=O)Nc3cc(C)cc(C)c3)c2=O)CC1 (stereo not drawn) . 70

Fill: survival (DeltatarO mutant) for this compound CCOc1ccc(NC(=O)c2cc(S(=O)(=O)N3CCOCC3)ccc2F)cc1 89

Answer with survival of O=C(Cn1ncc2c3ccccc3n(Cc3ccccc3)c2c1=O)N1CCCCCC1 measured for DeltatarO mutant. 82

Specify survival for CC1=C(C(=O)Nc2cccc(F)c2)C2(CCCCCC2)OC1=O , system DeltatarO mutant. 70

Answer briefly: survival recorded on DeltatarO mutant for Cc1cc(C)cc(OC(C)C(=O)Nc2c(C(=O)c3ccccc3)oc3ccccc23)c1 (stereo not drawn) 17

Param request: survival | system DeltatarO mutant | item Cc1ccc(Cn2c(CCNC(=O)c3cccc(C)c3)nc3ccccc32)cc1 60

Give measured survival for COc1ccccc1OC(C)C(=O)Nc1c(C(=O)c2ccc(Cl)cc2)oc2ccccc12 (stereo not drawn) (DeltatarO mutant). 81

Identify measured survival obtained with DeltatarO mutant for Cc1ccc(CNC(=O)C2CCN(c3nc4ccc(C)cc4[nH]3)CC2)cc1 . 126

State recorded survival with DeltatarO mutant, entry Cc1ccc(OCC(=O)Nc2ccc(S(=O)(=O)N3CCOCC3)cc2)c(C)c1 , no comment. 94

Fill in survival for CCOCCCN(Cc1ccco1)C(=O)c1cc2c(=O)[nH]c3ccc(C)cc3c2s1 tested with DeltatarO mutant. 88

Enter survival (test system DeltatarO mutant) for CCc1c(C)nc2cc(-c3ccc(OC)c(OC)c3)nn2c1NCC(C)(C)CN(C)C 98

Enter recorded survival with DeltatarO mutant for Cc1cccc(-c2nc3ccccc3n2Cc2ccccc2)c1 here. 0

---

As shown below, each of these molecules has a reported survival value.
System: DeltatarO mutant
Assay: S. aureus survival, RN4220 and DeltatarO strains – OD600, teichoic acid synthesis inhibitors, primary screen (AID 463173)
Conditions: S. aureus RN4220 wild type/DeltatarO growth, OD600, 18 h, active compounds read low, screened at 18.75 µg/mL (by protocol)
Screen size: about 52,000 compounds; about 4,300 (8.3%) were called active. The sample holds actives, similar compounds and a random draw of the others, so the mix is not that of the screen.
Field format: number, assumed %, no unit text.

Sample answers from the record:
| molecule | unit info | survival |
| --- | --- | --- |
| CCn1cc2nc(SCc3cccc(F)c3)n(CCc3ccccc3)c(=O)c2n1 | % | 71 |
| CCSc1ncc(Cl)c(C(=O)N(Cc2ccc(C(C)(C)C)cc2)C2CCS(=O)(=O)C2)n1 (stereo not given) | % | 42 |

Please supply the value of reported survival for the item CN(C)c1ccc(NC(=O)CC(NCc2cccnc2)C(=O)O)cc1 (stereo not given) 76

Determine from records and report survival for Cc1ccc(NC(=O)C2CCCN(S(=O)(=O)c3cccc4nsnc34)C2)c(C)c1 (stereo not given) 83

Indicate its recorded survival; the molecule in question is CCn1cc2nc(SCc3c(F)cccc3Cl)n(CCc3ccccc3)c(=O)c2n1 52
